The origin of these recorded values is PubChem BioAssay (NCATS).

test: Confirmatory screen GU Rhodamine qHTS for Zika virus inhibitors qHTS (AID 1347157); conditions: purified enzyme assay, Rhodamine110 substrate fluorescence, 15 min; series mostly up to 114 µM; further: nearly all actives have a fitted effect of over 70% in size; further: potency means the concentration at half of the fitted maximal effect
Inconclusive results are not listed. Calls of active or inactive are those of the source. The call rests on the fitted dose curve; in most records, active means well fitted inhibition curve with a large enough effect; inconclusive means small, poorly fitted or top-dose-only effect; inactive means flat fitted curve, though single readings scatter. *1 amine or outer side, *2 acyl side, *3 side chain or, on linkers, in order; H or OH if unused. Where a SMILES comes first, the peptide text is derived from it. Bridges are numbered along the chain shown (N, C = ends). [ ]: non-standard residue; d: D form. The star is where a group is joined. ξ: configuration not given here. ξhTyr(3S-OH,4S-OH,3'-OSO3H) = NC(C(=O)O)[C@H](O)[C@@H](O)c1ccc(O)c(OS(=O)(=O)O)c1; Orn(4R-OH,5R-OH) = O=C([C@H](C[C@@H](O)[C@@H](O)N[*:3])N[*:1])[*:2]; X2 = CCCCCOc1ccc(-c2cc(-c3ccc(C(=O)*)cc3)no2)cc1; X3 = C[C@H]1CN([*:1])C(C(=O)[*:2])[C@H]1O; ξGln(3R-OH) = NC(=O)C[C@@H](O)C(N)C(=O)O; ξPro(4R-OH) = O=C(O)C1C[C@@H](O)CN1; ξThr(3R) = C[C@@H](O)C(N)C(=O)O; Hexanoyl = CCCCCC(=O)*
readout label: Potency

Examples with their reported Potency follow.
- molecule: "CC1(C)[C@H]2C[C@H](C/C=C\\CCCC(=O)O)[C@@H](NC(=O)c3csc4ccc(O)cc34)[C@@H]1C2"
  readout label: "Potency"
  reported result: "24.8 µM (active)"
- molecule: "CCCCCC(=O)N1CCC[C@H]1C(=O)N[C@@H](Cc1ccc(O)cc1)C(=O)OC (Hexanoyl-Pro-Tyr-OMe)"
  readout label: "Potency"
  reported result: "inactive"
- molecule: "CCC(C)/C=C(C)/C=C/C1=CC2=CC(=O)C(C)(O)C(OC(C)=O)C2CO1 (centres undefined)"
  readout label: "Potency"
  reported result: "30.6 µM (active)"
- molecule: "COc1cc(Nc2nc3ccccc3nc2NS(=O)(=O)c2cccc(NC(=O)c3ccc(C)c(OC)c3)c2)cc(OC)c1"
  readout label: "Potency"
  reported result: "1.39 µM (active)"
- molecule: "CCCCCOc1ccc(-c2cc(-c3ccc(C(=O)N[C@H]4C[C@@H](O)[C@@H](O)NC(=O)C5[C@@H](O)[C@@H](C)CN5C(=O)C([C@H](O)CC(N)=O)NC(=O)C([C@H](O)[C@@H](O)c5ccc(O)c(OS(=O)(=O)O)c5)NC(=O)C5C[C@@H](O)CN5C(=O)C([C@@H](C)O)NC4=O)cc3)no2)cc1 (stereo partly drawn) (X2-[Orn(4R-OH,5R-OH)][ξThr(3R)][ξPro(4R-OH)][ξhTyr(3S-OH,4S-OH,3'-OSO3H)][ξGln(3R-OH)][X3]; lactam 1-C)"
  readout label: "Potency"
  reported result: "4.82 µM (active)"

Fill in: Potency of CC(C)CC(c1c(O)c(C=O)c(O)c(C=O)c1O)C1CCC(C)(O)C2CC(C(C)(C)O)CCC12C (centres undefined) is ___
3.41 µM (active)

What value of measured Potency is listed for O=C(O)CC1CCC(c2ccc(-c3ccc(Nc4ccc(C(F)(F)F)nc4)cn3)cc2)CC1 (centres undefined) ?
4.41 µM (active)

Given the entry "Cc1ccc([C@@H]2CC=C(C(=O)O)[C@H](c3ccc(C(C)(C)C)cc3)N2S(=O)(=O)c2ccc(C)cc2)cc1" , report its measured Potency.
3.12 µM (active)

Could you tell me which Potency is on file for C/C(=C\CCC(C)CCO)C(=O)OC[C@H]1O[C@@H](O[C@@H]2OC=C(C(=O)O)[C@H]3CC[C@](C)(O)[C@@H]23)C(O)[C@@H](O)C1O (some centres undefined) ?
4.29 µM (active)

# get_value(readout='Potency', item= CC1(C)CC[C@]2(C(=O)O)CC[C@]3(C)C(=CCC4[C@@]5(C)CC[C@H](O[C@@H]6O[C@H](C(=O)O)[C@@H](O)[C@H](O)[C@H]6O)C(C)(C)C5CC[C@]43C)C2C1 (some centres undefined) )
5.84 µM (active)

Given the molecule COc1cc2c(c(OC)c1O)C(c1ccc(O)cc1)C1C(=O)OC3C(COC(=O)C1=C2)OC(CO)(OC1OC(COC(=O)/C=C/c2ccc(OC4OC(C)C(O)C(O)C4O)cc2)C(O)C(O)C1O)C3O (centres undefined) , what is its reported Potency?
7.44 µM (active)
